Values were extracted from patent US20240294551A1.

Target: GDP-bound KRAS protein (aa 1-169), containing both G12D and C118A amino acid substitutions (Homo sapiens (Human), UniProt P01116, C118A/G12D)
Sequence (P01116 other isoform, or with tags, fused parts or gaps G12D/C118A): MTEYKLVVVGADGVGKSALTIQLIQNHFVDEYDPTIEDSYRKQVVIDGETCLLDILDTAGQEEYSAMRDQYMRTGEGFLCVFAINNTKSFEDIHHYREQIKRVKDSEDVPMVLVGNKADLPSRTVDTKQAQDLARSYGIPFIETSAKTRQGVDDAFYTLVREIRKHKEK
Assay: KRAS G12D Coupled Nucleotide Exchange Assay
Type: biochemical
Settings: read-out: KRAS G12D Coupled Exchange IC50
Reported IC50 values are given for each entry in this list.
# unit: nM | format: bare number

In the examples that follow, each entry is paired with its recorded IC50.
compound: CN1[C@H](COc2nc3c4cnc(c(F)c4n2)-c2c(c(Cl)cc4[nH]ncc24)CCCOC(=O)O[C@@H]2COCCN3C2)C[C@@H]2C[C@@H]21 [Example 330]
IC50 [nM]: 2
//
compound: CC(=O)n1ncc2c3c(c(Cl)cc21)CCCOC(=O)O[C@@H]1COCCN(C1)c1nc(OC[C@@]24CCCN2C[C@H](F)C4)nc2c(F)c-3ncc12 [Example 213]
IC50 [nM]: 15
//
compound: C[C@@]12CCCN(C1)c1nc(OC[C@@]34CCCN3C[C@H](F)C4)nc3c(F)c(ncc13)-c1cccc3ccc(F)c(c13)CCCC(=O)N2 [Example 7, bis(2,2,2-trifluoroacetate)]
IC50 [nM]: 15

In: Need IC50, item Fc1c2ncc3c(nc(OC[C@@]45CCCN4C[C@H](F)C5)nc13)N1CCC[C@H](C1)Oc1nccc(n1)CCc1c(Cl)cc3[nH]ncc3c1-2 [Example 257]
Out: 178

In: Need IC50, item C[C@@]12CCCN(C1)c1nc(OC[C@@]34CCCN3C[C@H](F)C4)nc3c(F)c(ncc13)-c1cccc3cccc(c13)CCCOC(=O)O2 [Example 121]
Out: 422

In: Need IC50, item O=C1N[C@@H]2CN(C[C@@H]3C[C@@H]32)c2nc(OC[C@@]34CCCN3C[C@H](F)C4)nc3c(F)c(ncc23)-c2c(c(Cl)cc3[nH]ncc23)CCC[C@@H]1F [Example 174]
Out: 3

###

Biological target: GDP-bound KRAS protein (aa 1-169), containing both G12D and C118A amino acid substitutions (Homo sapiens (Human), UniProt P01116, C118A/G12D)
Test: KRAS G12D Coupled Nucleotide Exchange Assay
Type: biochemical
Settings: 2 hours compound pre-incubation; read-out: KRAS G12D Coupled Exchange
Consider the cut-off 3 nM. If the recorded IC50 is strictly smaller, the label is Satisfied; if not, the label is Not satisfied.

As a guide, the following entries are already answered.
compound: CC12CN(CCO1)c1nc(OC[C@@]34CCCN3C[C@H](F)C4)nc3c(F)c(ncc13)-c1c(c(Cl)cc3[nH]ncc13)CCCc1nc2co1 (mixture of isomers)
assigned category: Not satisfied
//
compound: O[C@@H]1C[C@@H]2COCCCCc3c(Cl)cc4[nH]ncc4c3-c3ncc4c(nc(OC[C@@]56CCCN5C[C@H](F)C6)nc4c3F)N(C1)C2
assigned category: Not satisfied
//
compound: CN1CCC[C@H]1COc1nc2c3cnc(c(F)c3n1)-c1c(c(Cl)cc3[nH]ncc13)CCc1cnc(o1)[C@@H](O)[C@@H]1CCCN2C1
assigned category: Satisfied

Consider the additional compound presented here.
In: Lab note: IC50 threshold 3 nM. Does this compound come in strictly under it? Fc1c2ncc3c(nc(OC[C@@]45CCCN4C[C@H](F)C5)nc13)N1CCOC[C@@H](Cc3ncc(o3)CCc3c(Cl)cc4[nH]ncc4c3-2)C1 (single isomer, unassigned)
Out: Not satisfied

###

System: AsPC-1 cells
Test: AsPC-1 CTG Assay (CellTiter-Glo cell viability)
Assay type: cell-based, human
Conditions: AsPC-1, 72 h; first value of the cell; read-out: G12D/C/V Cell Proliferation CTG (72 h) AsPC-1
outcome measure: pIC50
Quick note: pIC50 means taking -log10 of the concentration in moles per liter.

In the examples that follow, each entry is paired with its recorded pIC50.
compound: O=C1OCCCc2c(Cl)cccc2-c2ncc3c(nc(OC[C@@]45CCCN4C[C@H](F)C5)nc3c2F)N2CCOC[C@H](C2)O1
pIC50: 5.71
--
compound: Cc1cc2[nH]ncc2c2c1CCCOC(=O)CC1CCCN(C1)c1nc(OC[C@@]34CCCN3C[C@H](F)C4)nc3c(F)c-2ncc13 (stereo partly drawn)
pIC50: 6.72
--
compound: O=C1COCCc2c(Cl)cc3[nH]ncc3c2-c2ncc3c(nc(OC[C@@]45CCCN4C[C@H](F)C5)nc3c2F)N2CC[C@H]3CCN1[C@H]3C2
pIC50: 6.22

In: Need pIC50, item O[C@@H]1C[C@@H]2CN(C1)c1nc(OC[C@@]34CCCN3C[C@H](F)C4)nc3c(F)c(ncc13)-c1c(c(Cl)cc3[nH]ncc13)CCCn1ncc2n1 (single isomer, unassigned) [Example 299]
Out: 5.30

In: Need pIC50, item O[C@@H]1C[C@@H]2CN(C1)c1nc(OC[C@@]34CCCN3C[C@H](F)C4)nc3c(F)c(ncc13)-c1c(c(Cl)cc3[nH]ncc13)CCCn1ncc2n1 (single isomer, unassigned) [Example 300]
Out: 6.55

In: Need pIC50, item Cc1c2ncc3c(nc(OC[C@@]45CCCN4C[C@H](F)C5)nc13)N1CCOC[C@H](C1)OC(=O)OCCCc1c(Cl)cc3[nH]ncc3c1-2 (atropisomer, axis not shown) [Example 342]
Out: 5.51

In: Need pIC50, item Fc1c2ncc3c(nc(OC[C@@]45CCCN4C[C@H](F)C5)nc13)N1CCC[C@H](C1)c1coc(n1)CCCc1c(Cl)cc3[nH]ncc3c1-2
Out: 6.95

In: Need pIC50, item Fc1c2ncc3c(nc(OC[C@@]45CCCN4C[C@H](F)C5)nc13)N1CCC[C@]3(C1)C[C@H](C3)OCCCCc1c(Cl)cc3[nH]ncc3c1-2
Out: 7.40

In: Need pIC50, item Cc1c2ncc3c(nc(OC[C@@]45CCCN4C[C@H](F)C5)nc13)N1CCOC[C@H](C1)OC(=O)OCCCc1c(Cl)cc3[nH]ncc3c1-2 (atropisomer, axis not shown) [Example 341]
Out: 6.05

###

Biological target: His-tagged KRAS G12D protein (Homo sapiens (Human), UniProt P01116, G12D)
Sequence (P01116 other isoform, or with tags, fused parts or gaps G12D): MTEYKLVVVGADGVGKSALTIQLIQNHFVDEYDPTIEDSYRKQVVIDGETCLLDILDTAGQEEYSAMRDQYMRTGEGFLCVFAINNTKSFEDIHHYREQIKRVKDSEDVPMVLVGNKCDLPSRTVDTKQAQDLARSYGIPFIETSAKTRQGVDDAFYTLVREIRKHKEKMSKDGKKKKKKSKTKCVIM
Test: KRAS G12D TR-FRET Assay
Format: binding
Settings: read-out: KRAS G12D Binding IC50
pIC50: −log10 of the molar value.
Binary call on pIC50: Met from 8 upward, Not met beneath that.

compound: Cc1cc2[nH]ncc2c2c1C/C=C/COC[C@@H]1CCCN(C1)c1nc(OC[C@@]34CCCN3C[C@H](F)C4)nc3c(F)c-2ncc13 [Example 130]
assigned category: Met
//
compound: Fc1c2ncc3c(nc(OC[C@@]45CCCN4C[C@H](F)C5)nc13)N1CCC[C@H](C1)Cn1cc(nn1)CCc1c(Cl)cc3[nH]ncc3c1-2 [Example 146]
assigned category: Not met
//
compound: O=C1CCCCc2c(Cl)cc3[nH]ncc3c2-c2ncc3c(nc(OC[C@@]45CCCN4C[C@H](F)C5)nc3c2F)N2CCOC[C@H](C2)O1 [Example 84]
assigned category: Met
//
compound: Cc1cc2[nH]ncc2c2c1CCC[C@@H](O)CC[C@@H]1CCCN(C1)c1nc(OC[C@@]34CCCN3C[C@H](F)C4)nc3c(F)c-2ncc13 [Example 237]
assigned category: Not met
//
compound: Fc1c2ncc3c(nc(OC[C@@]45CCCN4C[C@H](F)C5)nc13)N1CCCC[C@@H](C1)c1cnn(n1)CCCc1c(Cl)cc3[nH]ncc3c1-2 [Example 295]
assigned category: Not met
//
compound: N#Cc1cc(Cl)c2c(c1)-c1ncc3c(nc(OC[C@@]45CCCN4C[C@H](F)C5)nc3c1F)N1CCOC[C@H](C1)OC(=O)OCCC2 [Example 216]
assigned category: Not met
//
compound: Cc1cc2[nH]ncc2c2c1CCC[C@@H](F)C(=O)N(C)[C@@H]1CCCN(C1)c1nc(OC[C@@]34CCCN3C[C@H](F)C4)nc3c(F)c-2ncc13 [Example 52]
assigned category: Not met
//
compound: Cc1cc2[nH]ncc2c2c1CCCCC(=O)O[C@@H]1COCCN(C1)c1nc(OC[C@@]34CCCN3C[C@H](F)C4)nc3c(F)c-2ncc13 [Example 83]
assigned category: Met
//
compound: O=C1CCCc2c(F)ccc3cccc(c23)-c2ncc3c(nc(OC[C@@]45CCCN4C[C@H](F)C5)nc3c2F)N2CC[C@H]3CCN1[C@H]3C2 [Example 72]
assigned category: Met
//
compound: O=C1OCCc2c(Cl)cc3[nH]ncc3c2-c2ncc3c(nc(OC[C@@]45CCCN4C[C@H](F)C5)nc3c2F)N2CCOC[C@]3(C2)C[C@@H](C3)O1 [Example 317]
assigned category: Not met

In: Entry Fc1cc2[nH]ncc2c2c1CCCCOC[C@H]1CCCCN(C1)c1nc(OC[C@@]34CCCN3C[C@H](F)C4)nc3c(F)c-2ncc13 [Example 240] : is its pIC50 no less than 8?
Out: Met

In: Entry O=C1OCCCCc2c(Cl)cc3[nH]ncc3c2-c2ncc3c(nc(OC[C@@]45CCCN4C[C@H](F)C5)nc3c2F)N2CCOC[C@H](C2)O1 [Example 324] : is its pIC50 no less than 8?
Out: Not met

In: Entry Cc1cc2[nH]ncc2c2c1CCCCC(=O)O[C@]1(C)CCCN(C1)c1nc(OC[C@@]34CCCN3C[C@H](F)C4)nc3c(F)c-2ncc13 [Example 32] : is its pIC50 no less than 8?
Out: Met

In: Entry Cc1cc2[nH]ncc2c2c1CCCOC(=O)C[C@@H]1CCCN(C1)c1nc(OC[C@@]34CCCN3C[C@H](F)C4)nc3c(F)c-2ncc13 [Example 40] : is its pIC50 no less than 8?
Out: Met

In: Entry O=C1N[C@H]2CN(C[C@H]3C[C@H]32)c2nc(OC[C@@]34CCCN3C[C@H](F)C4)nc3c(F)c(ncc23)-c2c(c(Cl)cc3[nH]ncc23)CCC[C@@H]1F [Example 175] : is its pIC50 no less than 8?
Out: Met

In: Entry O=C1CCCc2c(F)ccc3cccc(c23)-c2ncc3c(nc(OC[C@@]45CCCN4C[C@H](F)C5)nc3c2F)N2CCOC[C@H](C2)N1 [Example 70] : is its pIC50 no less than 8?
Out: Not met
